Provenance of the data: ChEMBL document CHEMBL1158048

# reported pIC50; entries follow
Tested on: NCI-H187
procedure.text: Cytotoxicity against human NCI-H187 cells by SRB assay
Type: functional, cell-based
Here pIC50 is given on a logarithmic scale as minus log10 of the concentration in mol/L.

*Q* Which measured pIC50 value corresponds to C[C@@H]1C[C@H](O)[C@]2(O)O[C@@H]3C[C@@]4(C=O)[C@@H](CC[C@@H]5[C@@H]4CC[C@]46CO[C@]7(COC(=O)C7)[C@H]4CC[C@]56O)C[C@H]3O[C@@H]2O1 ?
*A* 5.44

*Q* Requested read-out: pIC50. Entry: COc1cccc2c1C(=O)c1c(O)c3c(c(O)c1C2=O)C[C@@](O)(C(=O)CO)C[C@@H]3O[C@H]1C[C@H](N)[C@H](O)[C@H](C)O1 [DOXORUBICIN]
*A* 7.39

*Q* Given C[C@@H]1C[C@@H](O)[C@]2(O)O[C@@H]3C[C@@]4(C=O)[C@@H](CC[C@@H]5[C@@H]4CC[C@]4(C)[C@@H](C6=CC(=O)OC6)CC[C@]54O)C[C@H]3O[C@@H]2O1 [CALACTIN] , state its recorded pIC50.
*A* 6.46

*Q* Item under review: C[C@]12CC[C@H](O)C[C@H]1CC[C@@H]1[C@@H]2CC[C@]2(C)[C@@H](C3=CC(=O)OC3)CC[C@]12O [DIGITOXIGENIN] . Reported pIC50?
*A* 5.01

*Q* For the compound C[C@@H]1C[C@H](O)[C@]2(O)O[C@@H]3C[C@@]4(C=O)[C@@H](CC[C@@H]5[C@@H]4CC[C@]4(C)[C@@H](C6=CC(=O)OC6)CC[C@]54O)C[C@H]3O[C@@H]2O1 [CALOTROPIN] , what pIC50 is on record?
*A* 6.33
